Some compounds, each annotated with its measured Ki.
- target.entity: Human α2δ-1 subunit of Cav2.2 calcium channel (Homo sapiens (Human))
- assay.comment: Binding Assay to Human α2δ-1 Subunit of Cav2.2 Calcium Channel
- condition: Table 2, dual compounds; human α2δ-1 enriched membranes, 15 nM [3H]-Gabapentin; read-out: Ki(nM) alpha2delta Hum

Example compounds with recorded Ki:
* CNCC[C@@H](Oc1cccc(N2CCN(C(C)C)CCC2=O)c1)c1cccs1 [Example 67] | 100 to 500 nM
* CNCCC(Oc1ccc(CN2CCN(C)c3nc(C)ccc3C2=O)cc1)c1ccccc1 (centres unmarked) [Example 110] | 500 to 3000 nM
* CNCCC(OCc1cccc(N2CCCN(C)CC2)c1)c1ccccc1 (centres unmarked) [Example 6] | 500 to 3000 nM

Looking up CNCC[C@H](Oc1ccc(CN2CCN(C)c3ncccc3C2=O)c(F)c1)c1ccccc1 [Example 116] , I see its Ki listed as < 100 nM

Looking up CNCCC(Oc1cccc(CN2CCN(C)c3ccccc3C2)c1)c1cccs1 (centres unmarked) [Example 1] , I see its Ki listed as 100 to 500 nM

Looking up CNCCC(Oc1cc(F)cc(N2CCN(C)c3ncccc3C2=O)c1)c1cccc(F)c1 (centres unmarked) [Example 121] , I see its Ki listed as < 100 nM

---

- target.entity: Human α2δ-1 subunit of Cav2.2 calcium channel (Homo sapiens (Human), UniProt P54289)
- Sequence (P54289 25-1103): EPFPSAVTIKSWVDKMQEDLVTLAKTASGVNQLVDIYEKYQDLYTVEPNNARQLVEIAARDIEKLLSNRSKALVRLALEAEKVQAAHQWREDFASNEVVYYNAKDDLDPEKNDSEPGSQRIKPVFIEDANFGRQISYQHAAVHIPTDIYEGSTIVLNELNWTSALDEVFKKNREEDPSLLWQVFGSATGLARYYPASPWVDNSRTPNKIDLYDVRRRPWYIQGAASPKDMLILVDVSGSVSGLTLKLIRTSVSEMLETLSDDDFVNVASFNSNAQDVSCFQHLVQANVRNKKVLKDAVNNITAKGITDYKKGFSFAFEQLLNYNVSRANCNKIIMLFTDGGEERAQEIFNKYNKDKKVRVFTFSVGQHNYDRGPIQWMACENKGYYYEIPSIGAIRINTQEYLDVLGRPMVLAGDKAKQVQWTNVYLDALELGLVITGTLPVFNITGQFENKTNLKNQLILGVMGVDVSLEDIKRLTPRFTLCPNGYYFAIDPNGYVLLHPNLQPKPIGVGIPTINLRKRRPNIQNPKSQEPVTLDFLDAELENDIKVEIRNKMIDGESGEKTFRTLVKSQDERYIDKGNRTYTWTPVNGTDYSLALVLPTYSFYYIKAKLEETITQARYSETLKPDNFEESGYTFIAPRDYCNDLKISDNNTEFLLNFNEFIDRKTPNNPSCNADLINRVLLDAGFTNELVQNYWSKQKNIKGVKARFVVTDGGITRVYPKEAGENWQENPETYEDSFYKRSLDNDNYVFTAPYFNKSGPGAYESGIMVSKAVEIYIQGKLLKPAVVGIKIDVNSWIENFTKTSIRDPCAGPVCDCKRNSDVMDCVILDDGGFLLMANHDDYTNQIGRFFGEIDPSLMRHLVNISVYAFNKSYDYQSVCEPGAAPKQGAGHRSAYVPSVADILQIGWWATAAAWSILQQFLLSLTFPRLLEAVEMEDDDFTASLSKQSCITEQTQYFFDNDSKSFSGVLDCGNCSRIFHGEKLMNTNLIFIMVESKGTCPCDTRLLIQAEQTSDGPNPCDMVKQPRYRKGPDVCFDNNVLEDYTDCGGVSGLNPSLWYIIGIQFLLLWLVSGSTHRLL
- assay.comment: Binding Assay to Human α2δ-1 Subunit of Cav2.2 Calcium Channel
- condition: Table 1; human α2δ-1 enriched membranes, 15 nM [3H]-Gabapentin; read-out: Ki(nM) alpha2delta Hum
- Procedure: Binding Assay to Human α2δ-1 Subunit of Cav2.2 Calcium Channel. NSB (non specific binding) was measured by adding 10 μM pregabalin. The binding of the test compound was measured in five different concentrations. […] Filter plates were dried at 60° C. for 1 hour and 30 μl of scintillation cocktail were added to each well before radioactivity reading.
Some compounds, each annotated with its measured Ki.

Looking up CNCC[C@H](Oc1ccc(CN2CCN(C)c3cccnc3C2=O)cc1)c1cccs1 , I see its Ki listed as 500 to 3000 nM

Looking up CNCCC(OCc1ccc(N2CCN(C)c3ccccc3C2=O)cc1)c1ccccc1 (stereo not drawn) , I see its Ki listed as > 3000 nM

Looking up CNCC[C@H](Oc1ccc(CN2CCN(C)c3nc(OC)ccc3C2=O)cc1)c1cccs1 , I see its Ki listed as 100 to 500 nM

Looking up CNCC[C@H](Oc1cccc(N2CCN(C(C)C)CCC2=O)c1)c1cccs1 , I see its Ki listed as 500 to 3000 nM

Looking up CNCC[C@@H](OCc1cccc(N2CCN(C)c3ccccc3C2=O)c1)c1ccccc1 , I see its Ki listed as 500 to 3000 nM

Looking up CNCCC(Oc1cccc(N2CCCCCC2=O)c1)c1cccs1 (stereo not drawn) , I see its Ki listed as > 3000 nM

---

- target.entity: Human norepinephrine transporter (NET) (Homo sapiens (Human), UniProt P23975)
- Sequence (P23975 whole entry): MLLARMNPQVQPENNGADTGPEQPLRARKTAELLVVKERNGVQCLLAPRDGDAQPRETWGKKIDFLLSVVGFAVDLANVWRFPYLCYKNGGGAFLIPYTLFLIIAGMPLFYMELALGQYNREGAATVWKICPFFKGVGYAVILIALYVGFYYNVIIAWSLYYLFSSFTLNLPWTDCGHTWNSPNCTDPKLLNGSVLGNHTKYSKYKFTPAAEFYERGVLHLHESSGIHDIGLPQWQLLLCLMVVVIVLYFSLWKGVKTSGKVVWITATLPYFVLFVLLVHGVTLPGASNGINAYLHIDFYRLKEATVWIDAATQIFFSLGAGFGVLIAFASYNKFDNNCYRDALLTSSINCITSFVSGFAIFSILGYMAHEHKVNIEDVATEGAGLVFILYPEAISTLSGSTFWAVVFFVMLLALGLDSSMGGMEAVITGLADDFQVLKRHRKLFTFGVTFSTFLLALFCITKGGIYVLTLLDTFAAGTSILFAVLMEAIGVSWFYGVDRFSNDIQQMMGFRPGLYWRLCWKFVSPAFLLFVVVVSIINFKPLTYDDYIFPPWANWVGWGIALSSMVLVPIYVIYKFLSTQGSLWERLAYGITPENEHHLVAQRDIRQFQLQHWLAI
- assay.comment: Binding Assay to Human Norepinephrine Transporter (NET)
- condition: Table 2, dual compounds; human NET enriched membranes, 5 nM [3H]-Nisoxetin; read-out: Ki(nM) NET Hum
Some compounds, each annotated with its measured Ki.

Example compounds with recorded Ki:
- CNCC[C@H](Oc1ccc(CN2CCN(C)c3cnccc3C2=O)cc1)c1cccs1: 100 to 500 nM
- CNCC[C@H](Oc1ccc(CN2CCN(C)c3nc(O)ccc3C2=O)c(F)c1)c1ccccc1: < 100 nM
- CNCCC(Oc1cccc(N2CCN(C(C)C)CCC2=O)c1)c1cccs1 (centres unmarked): 500 to 1000 nM
- CNCC[C@H](Oc1ccc(CN2CCN(C)c3ncccc3C2=O)c(F)c1)c1cccs1: 100 to 500 nM
- CNCC[C@H](Oc1ccc(CN2CCN(C)c3nc(N)ccc3C2=O)c(F)c1)c1ccccc1: < 100 nM

Log: Human norepinephrine transporter (NET) (Homo sapiens (Human), UniProt P23975), compound CNCC[C@H](Oc1ccc(CN2CCN(C)c3ncccc3C2=O)c(C)c1)c1ccccc1 , Ki = 100 to 500 nM

Log: Human norepinephrine transporter (NET) (Homo sapiens (Human), UniProt P23975), compound CNCCC(Oc1cccc(C(=O)N2CCCN(C)CC2)c1)c1ccccc1 (centres unmarked) , Ki = 100 to 500 nM

Log: Human norepinephrine transporter (NET) (Homo sapiens (Human), UniProt P23975), compound CNCC[C@H](Oc1ccc(CN2CCN(C)c3nc(C)ccc3C2=O)cc1)c1cccs1 , Ki = 100 to 500 nM

Log: Human norepinephrine transporter (NET) (Homo sapiens (Human), UniProt P23975), compound CNCC[C@H](Oc1ccc(CN2CCN(C)c3ccccc3C2=O)cc1)c1cccs1 , Ki = 100 to 500 nM

Log: Human norepinephrine transporter (NET) (Homo sapiens (Human), UniProt P23975), compound CNCC[C@H](Oc1ccc(CN2CCN(C)c3ncc(F)cc3C2=O)c(F)c1)c1ccccc1 , Ki = < 100 nM

Log: Human norepinephrine transporter (NET) (Homo sapiens (Human), UniProt P23975), compound CNCC[C@H](Oc1ccc(CN2CCN(C)c3ncccc3C2=O)c(F)c1)c1cccc(F)c1 , Ki = < 100 nM

Log: Human norepinephrine transporter (NET) (Homo sapiens (Human), UniProt P23975), compound CCNC[C@H]1CC(=O)N(c2cccc(O[C@@H](CCNC)c3cccs3)c2)CCN1C , Ki = 100 to 500 nM

Log: Human norepinephrine transporter (NET) (Homo sapiens (Human), UniProt P23975), compound CNCC[C@H](Oc1ccc(CN2CCCn3nc(C)cc3C2=O)c(F)c1)c1ccccc1 , Ki = < 100 nM

Log: Human norepinephrine transporter (NET) (Homo sapiens (Human), UniProt P23975), compound CNCC[C@H](Oc1cc(F)cc(N2CCN(C)c3ncccc3C2=O)c1)c1cccs1 , Ki = < 100 nM

Log: Human norepinephrine transporter (NET) (Homo sapiens (Human), UniProt P23975), compound CCNc1ccc2c(n1)N(C)CCN(Cc1ccc(O[C@@H](CCNC)c3cccs3)cc1)C2=O , Ki = < 100 nM

Log: Human norepinephrine transporter (NET) (Homo sapiens (Human), UniProt P23975), compound CNCCC(Oc1ccc(CN2CCN(C)c3nc(C)ccc3C2=O)cc1)c1ccccc1 (centres unmarked) , Ki = < 100 nM

Log: Human norepinephrine transporter (NET) (Homo sapiens (Human), UniProt P23975), compound CNCCC(OCc1cccc(N2CCCN(C)CC2)c1)c1ccccc1 (centres unmarked) , Ki = 100 to 500 nM

---

- target.entity: Human α2δ-1 subunit of Cav2.2 calcium channel (Homo sapiens (Human), UniProt P54289)
- assay.comment: Binding Assay to Human α2δ-1 Subunit of Cav2.2 Calcium Channel
- condition: Table 2, dual compounds; human α2δ-1 enriched membranes, 15 nM [3H]-Gabapentin; read-out: Ki(nM) alpha2delta Hum
Some compounds, each annotated with its measured Ki.

Looking up CNCCC(OCc1cccc(N2CCNCCC2=O)c1)c1ccccc1 (stereo not shown) , I see its Ki listed as 500 to 3000 nM

Looking up CNCC[C@H](Oc1ccc(CN2CCN(C)c3ncccc3C2=O)cc1)c1cccs1 , I see its Ki listed as < 100 nM

Looking up CNCCC(OCc1cccc(N2CCN(C)CCC2=O)c1)c1ccccc1 (stereo not shown) , I see its Ki listed as 500 to 3000 nM

Looking up CNCC[C@H](Oc1ccc(CN2CCN(C)c3ncccc3C2=O)c(F)c1)c1ccccc1F , I see its Ki listed as < 100 nM

Looking up CNCCC(Oc1ccc(F)c(N2CCN(C)c3ncccc3C2=O)c1)c1cccc(F)c1 (stereo not shown) , I see its Ki listed as 100 to 500 nM

Looking up CNCC[C@H](Oc1ccc(CN2CCN(C)c3ncccc3C2=O)c(F)c1)c1cccs1 , I see its Ki listed as < 100 nM

---

Some compounds, each annotated with its measured Ki.
- target.entity: Human norepinephrine transporter (NET) (Homo sapiens (Human), UniProt P23975)
- assay.comment: Binding Assay to Human Norepinephrine Transporter (NET)
- condition: Table 2, dual compounds; human NET enriched membranes, 5 nM [3H]-Nisoxetin; read-out: Ki(nM) NET Hum

* CNCCC(Oc1ccc(CN2CCN(C)c3nc(N)ccc3C2=O)c(F)c1)c1cccc(F)c1 (stereo not shown) [Example 131] | < 100 nM
* CNCCC(Oc1ccc(CN2CCN(C)c3ncccc3C2=O)cc1)c1cccs1 (stereo not shown) [Example 99] | < 100 nM
* CCN1CCC(=O)N(c2cccc(OC(CCNC)c3cccs3)c2)CC1 (stereo not shown) [Example 58] | 100 to 500 nM

Okay, next one:
Looking up CNCCC(OCc1cccc(N2CCN(C)CCC2=O)c1)c1cccs1 (stereo not shown) [Example 84] , I see its Ki listed as 100 to 500 nM
